B1: glmS ribozyme (parent)
chain: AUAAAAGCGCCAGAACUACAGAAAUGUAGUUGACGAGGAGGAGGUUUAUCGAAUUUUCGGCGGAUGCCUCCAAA

# Variants of: B1
# Protocol: KM; higher = weaker cofactor use; RNA array
# Conditions used: with glucosamine-6-phosphate
Label rule, in plain words: KM of 1000 µM and up is YES, under 1000 µM is NO.

Input: Given the entry U31A , answer whether its KM meets or surpasses 1000 µM.
Output: YES

Input: Given the entry C11A C70U , answer whether its KM meets or surpasses 1000 µM.
Output: NO
